- Tested on: 922993-354-T-J3-PDC complex spheroids, viability
- Protocol text: Anticancer human tumor 922993-354-T-J3-PDC patient-derived endometrial carcinoma cell line growth inhibition [GQUAD]
- Condition: second compound 3.16 µM; first compound 1 µM; active compounds read low
- Description: DNA G-quadruplex Stabilizer Agents in Combinations in Complex Spheroids A high-throughput screen of multi-cell type tumor spheroids was designed to identify active combinations of DNA G-quadruplex stabilizer agents and targeted small molecules. […] Compounds. […] If the clinical Cmax for an agent had not been determined, the highest concentration tested was 10 microM. […]
Hi! Just check whether viability, T/C is below 90%. Below gives criterion met, equal or above gives criterion not met.

Compound	System under test	Assigned class
COc1cccc2c1C(=O)c1c(O)c3c(c(O)c1C2=O)CC(O)(C(=O)CO)CC3OC1CC(N)C(O)C(C)O1 (stereo not given) + CN(C)c1ccc(Nc2c3ccc(NC(=O)CCN4CCCC4)cc3nc3cc(NC(=O)CCN4CCCC4)ccc23)cc1	922993-354-T-J3-PDC complex spheroids, viability	criterion met
CC1COCCN1c1cc(C2(O)CC3CCC(C2)O3)c2cnn(-c3ccn[nH]3)c2n1 (stereo not given) + CN(C)c1ccc(Nc2c3ccc(NC(=O)CCN4CCCC4)cc3nc3cc(NC(=O)CCN4CCCC4)ccc23)cc1	922993-354-T-J3-PDC complex spheroids, viability	criterion met
Nc1ccn(C2OC(CO)C(O)C2(F)F)c(=O)n1 (stereo not given) + Cc1[nH]c2ccc(F)cc2c1-c1nc2c3cccnc3c3ncccc3c2[nH]1	922993-354-T-J3-PDC complex spheroids, viability	criterion met
Nc1ccn(C2OC(CO)C(O)C2(F)F)c(=O)n1 (stereo not given) + CN(C)c1ccc(Nc2c3ccc(NC(=O)CCN4CCCC4)cc3nc3cc(NC(=O)CCN4CCCC4)ccc23)cc1	922993-354-T-J3-PDC complex spheroids, viability	criterion met
COc1ncnc(C2CC2)c1-c1ncc2cnn(Cc3ccc(-c4nc(C(F)(F)F)cn4C(C)C)cc3)c2n1 + CN(C)c1ccc(Nc2c3ccc(NC(=O)CCN4CCCC4)cc3nc3cc(NC(=O)CCN4CCCC4)ccc23)cc1	922993-354-T-J3-PDC complex spheroids, viability	criterion not met
Cc1cccc(N(C)C(=O)C2C(O)CCN2c2nc(C)cc(C(F)(F)F)c2C#N)c1 (stereo not given) + CN(C)c1ccc(Nc2c3ccc(NC(=O)CCN4CCCC4)cc3nc3cc(NC(=O)CCN4CCCC4)ccc23)cc1	922993-354-T-J3-PDC complex spheroids, viability	criterion not met
C#Cc1c(F)ccc2cc(O)cc(-c3ncc4c(N5CC6CCC(C5)N6)nc(OCC56CCCN5CC(F)C6)nc4c3F)c12 (stereo not given) + CN(C)c1ccc(Nc2c3ccc(NC(=O)CCN4CCCC4)cc3nc3cc(NC(=O)CCN4CCCC4)ccc23)cc1	922993-354-T-J3-PDC complex spheroids, viability	criterion not met
COc1cccc2c1C(=O)c1c(O)c3c(c(O)c1C2=O)CC(O)(C(=O)CO)CC3OC1CC(N)C(O)C(C)O1 (stereo not given) + Cc1cnc(CNC(=O)c2c(=O)c3ccc(N4CCCN(C)CC4)nc3n3c2sc2ccccc23)cn1	922993-354-T-J3-PDC complex spheroids, viability	criterion met

----------
- Tested on: 922993-354-T-J3-PDC complex spheroids, viability
- Protocol text: Anticancer human tumor 922993-354-T-J3-PDC cell line growth inhibition [GQUAD];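 also: spheroids exposed to compounds for seven days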
- Condition: second compound 0.316 µM; first compound 0.1 µM; active compounds read low
Hi! Just check whether viability, T/C is below 50%. Below gives satisfied, equal or above gives not satisfied.

Compound	System under test	Assigned class
O=C(c1cc(Cc2n[nH]c(=O)c3ccccc23)ccc1F)N1CCN(C(=O)C2CC2)CC1 + CN(C)c1ccc(Nc2c3ccc(NC(=O)CCN4CCCC4)cc3nc3cc(NC(=O)CCN4CCCC4)ccc23)cc1	922993-354-T-J3-PDC complex spheroids, viability	not satisfied
CCCS(=O)(=O)Nc1ccc(F)c(C(=O)c2c[nH]c3ncc(-c4ccc(Cl)cc4)cc23)c1F + Cc1[nH]c2ccc(F)cc2c1-c1nc2c3cccnc3c3ncccc3c2[nH]1	922993-354-T-J3-PDC complex spheroids, viability	not satisfied
COc1ccc([C@@H](O)c2cc(-c3ncnc4cc(N5CCOCC5)ccc34)c(F)cc2Cl)nn1 + CN(C)c1ccc(Nc2c3ccc(NC(=O)CCN4CCCC4)cc3nc3cc(NC(=O)CCN4CCCC4)ccc23)cc1	922993-354-T-J3-PDC complex spheroids, viability	not satisfied
CC1COCCN1c1cc(-c2ccnn2C)c2ccnc(-c3ccn[nH]3)c2n1 (stereo not given) + Cc1cnc(CNC(=O)c2c(=O)c3ccc(N4CCCN(C)CC4)nc3n3c2sc2ccccc23)cn1	922993-354-T-J3-PDC complex spheroids, viability	satisfied
CC1COCCN1c1cc(C2(O)CC3CCC(C2)O3)c2cnn(-c3ccn[nH]3)c2n1 (stereo not given) + Cc1cnc(CNC(=O)c2c(=O)c3ccc(N4CCCN(C)CC4)nc3n3c2sc2ccccc23)cn1	922993-354-T-J3-PDC complex spheroids, viability	satisfied
C=CC(=O)N1CCN(c2nc(=O)n(-c3c(C)ccnc3C(C)C)c3nc(-c4c(O)cccc4F)c(F)cc23)C(C)C1 (stereo not given) + CN(C)c1ccc(Nc2c3ccc(NC(=O)CCN4CCCC4)cc3nc3cc(NC(=O)CCN4CCCC4)ccc23)cc1	922993-354-T-J3-PDC complex spheroids, viability	not satisfied
COc1ncnc(C2CC2)c1-c1ncc2cnn(Cc3ccc(-c4nc(C(F)(F)F)cn4C(C)C)cc3)c2n1 + Cc1[nH]c2ccc(F)cc2c1-c1nc2c3cccnc3c3ncccc3c2[nH]1	922993-354-T-J3-PDC complex spheroids, viability	not satisfied
O=C(NO)c1cnc(N2CCN(S(=O)(=O)c3ccc4ccccc4c3)CC2)nc1 + Cc1cnc(CNC(=O)c2c(=O)c3ccc(N4CCCN(C)CC4)nc3n3c2sc2ccccc23)cn1	922993-354-T-J3-PDC complex spheroids, viability	satisfied
O=C(NO)c1cnc(N2CCN(S(=O)(=O)c3ccc4ccccc4c3)CC2)nc1 + CN(C)c1ccc(Nc2c3ccc(NC(=O)CCN4CCCC4)cc3nc3cc(NC(=O)CCN4CCCC4)ccc23)cc1	922993-354-T-J3-PDC complex spheroids, viability	not satisfied
